Task for the reader: assign each of the following compounds its reported pIC50.
For clarity, pIC50 is expressed as the negative log10 of concentration in mol/L.

Qu. Report its pIC50 with UniProtKB P24530 as the test system: `COc1ccc(-c2sc3c(c2C)c(=O)n(CC(=O)O)c(=O)n3Cc2ccccc2C)cc1`
Sequence (P24530 27-442): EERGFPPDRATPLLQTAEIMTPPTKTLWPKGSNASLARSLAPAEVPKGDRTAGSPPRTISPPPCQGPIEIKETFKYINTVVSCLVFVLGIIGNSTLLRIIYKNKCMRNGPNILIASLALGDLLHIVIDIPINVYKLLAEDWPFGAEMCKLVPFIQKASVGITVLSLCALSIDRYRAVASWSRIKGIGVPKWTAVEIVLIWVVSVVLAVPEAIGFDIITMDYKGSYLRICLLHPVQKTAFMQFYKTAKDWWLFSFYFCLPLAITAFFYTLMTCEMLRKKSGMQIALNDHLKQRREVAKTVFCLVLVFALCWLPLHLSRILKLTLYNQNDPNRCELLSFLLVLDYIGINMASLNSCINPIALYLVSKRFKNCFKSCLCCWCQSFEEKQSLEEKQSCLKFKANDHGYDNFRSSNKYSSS
Ans. 4.85

Qu. Report its pIC50 with UniProtKB P24530 as the test system: `COCOc1ccc(-c2sc3c(c2C)c(=O)n(CC(=O)O)c(=O)n3Cc2ccccc2SC)cc1`
Ans. 6.04

Qu. Report its pIC50 with UniProtKB P24530 as the test system: `CSc1ccccc1Cn1c(=O)n(CC(=O)O)c(=O)c2c(C)c(-c3ccc4c(c3)OCO4)sc21`
Ans. 4.80

Qu. Report its pIC50 with UniProtKB P24530 as the test system: `CCCOc1ccc(-c2sc3c(c2C)c(=O)n(CC(=O)O)c(=O)n3Cc2ccccc2SC)cc1`
Ans. 5.59

Qu. Report its pIC50 with UniProtKB P24530 as the test system: `COc1ccc(-c2sc3c(c2C)c(=O)n(CC(=O)O)c(=O)n3Cc2cc(OC)ccc2OC)cc1`
Ans. 4.59

Qu. Report its pIC50 with UniProtKB P24530 as the test system: `COc1ccc(-c2sc3c(c2C)c(=O)n(CC(=O)O)c(=O)n3Cc2ccccc2SC)cc1`
Ans. 5.17

Qu. Report its pIC50 with UniProtKB P24530 as the test system: `COc1ccccc1Cn1c(=O)n(CC(=O)O)c(=O)c2c(C)c(-c3ccc(OCSC)cc3)sc21`
Ans. 4.82

Qu. Report its pIC50 with UniProtKB P24530 as the test system: `COc1ccc(-c2sc3c(c2C)c(=O)n(CC(=O)O)c(=O)n3Cc2ccccc2OC)cc1`
Ans. 4.92

Qu. Report its pIC50 with UniProtKB P24530 as the test system: `COCOc1ccc(-c2sc3c(c2C)c(=O)n(CC(=O)O)c(=O)n3Cc2ccccc2OC)cc1`
Ans. 5.62

* * *

Task for the reader: assign each of the following compounds its reported pIC50.
Molecular target: Endothelin-A Receptor (Homo sapiens, UniProt P25101)
Sequence (P25101 21-427): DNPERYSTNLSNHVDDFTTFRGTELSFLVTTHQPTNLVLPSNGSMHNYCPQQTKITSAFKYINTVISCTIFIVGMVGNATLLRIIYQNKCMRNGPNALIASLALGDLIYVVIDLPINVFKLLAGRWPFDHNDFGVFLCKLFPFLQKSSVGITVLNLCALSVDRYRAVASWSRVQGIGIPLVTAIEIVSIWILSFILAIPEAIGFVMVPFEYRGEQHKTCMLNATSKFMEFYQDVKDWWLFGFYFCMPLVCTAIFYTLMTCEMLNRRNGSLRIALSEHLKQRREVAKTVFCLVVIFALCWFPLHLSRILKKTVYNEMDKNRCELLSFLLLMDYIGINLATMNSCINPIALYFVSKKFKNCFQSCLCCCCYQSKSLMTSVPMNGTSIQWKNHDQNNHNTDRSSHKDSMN
For clarity, pIC50 is expressed as the negative log10 of concentration in mol/L.

Qu. Give the measured pIC50 for CSc1ccccc1Cn1c(=O)n(CC(=O)O)c(=O)c2c(C)c(-c3ccc(OCC(C)=O)cc3)sc21 [Compound 148]
Ans. 6.40

Qu. Give the measured pIC50 for CCCOc1ccc(-c2sc3c(c2C)c(=O)n(CC(=O)O)c(=O)n3Cc2ccccc2SC)cc1 [Compound 146]
Ans. 6.60

Qu. Give the measured pIC50 for COc1ccccc1Cn1c(=O)n(CC(=O)O)c(=O)c2c(C)c(-c3ccc(OCCO)cc3)sc21 [Compound 130]
Ans. 5.92

Qu. Give the measured pIC50 for COCOc1ccc(-c2sc3c(c2C)c(=O)n(CC(=O)O)c(=O)n3Cc2ccccc2SC)cc1 [Compound 144]
Ans. 7.07

Qu. Give the measured pIC50 for COc1ccc(-c2sc3c(c2C)c(=O)n(CC(=O)O)c(=O)n3Cc2ccccc2OC)cc1 [Compound 105]
Ans. 5.72

Qu. Give the measured pIC50 for COc1ccc(-c2sc3c(c2C)c(=O)n(CC(=O)O)c(=O)n3Cc2ccccc2C)cc1 [Compound 111]
Ans. 5.74

Qu. Give the measured pIC50 for COCOc1ccc(-c2sc3c(c2C)c(=O)n(CC(=O)O)c(=O)n3Cc2ccccc2OC)cc1 [Compound 131]
Ans. 6.52

Qu. Give the measured pIC50 for CSCOc1ccc(-c2sc3c(c2C)c(=O)n(CC(=O)O)c(=O)n3Cc2ccccc2SC)cc1 [Compound 145]
Ans. 7.18
